- Tested on: Mus musculus
- procedure-summary: Antiinflammatory activity in Swiss Albino mouse assessed as inhibition of carrageenan-induced paw edema at 25 mg/kg, po administered 30 mins before carrageenan challenge relative to vehicle-treated control
- Type: functional
- Set-up: scale not given: the % may be the effect or the level left
Strictly below 20% in Activity: label 1. Otherwise: label 0.

Before answering, review these 5 worked examples.
NS(=O)(=O)c1ccc(Nc2ccc(Nc3ccccc3NC3=NNC(=O)C3)nn2)cc1
label 1
NC(=O)c1ccccc1Nc1ccc(Nc2ccccc2NC2=NNC(=O)C2)nn1
label 1
NC(=O)c1ccccc1Oc1ccc(Nc2ccccc2NC2=NNC(=O)C2)nn1
label 1
O=C1CC(Nc2ccccc2Nc2ccc(Cl)nn2)=NN1
label 1
O=C1CC(Nc2ccccc2Nc2ccc(Nc3ccccc3F)nn2)=NN1
label 1

Query: Strictly below 20%: is that where Activity of CN1CCN(c2ccc(Nc3ccccc3NC3=NNC(=O)C3)nn2)CC1 sits?
Response: label 0

Query: Strictly below 20%: is that where Activity of O=C([O-])Cc1ccccc1Nc1c(Cl)cccc1Cl.[Na+] [DICLOFENAC SODIUM] sits?
Response: label 0

* * *

In what follows, each item is paired with its pIC50 for Prostaglandin G/H synthase 1 (Ovis aries, UniProt P05979).
Give only the number. pIC50 is defined as minus log10 of concentration in molar units.

Check out these entries, answers already filled in.
O=C1CC(Nc2ccccc2Nc2ccc(N3CCOCC3)nn2)=NN1
5.54
O=C1CC(Nc2ccccc2Nc2ccc(Nc3ccccc3Cl)nn2)=NN1
5.40
O=C1CC(Nc2ccccc2Nc2ccc(Nc3ccc(Cl)cc3)nn2)=NN1
5.35

Next:
Query: Item under review: O=C1CC(Nc2ccccc2Nc2ccc(N3CCCCC3)nn2)=NN1 . Reported pIC50?
Response: 5.50

* * *

- System: Mus musculus
- procedure-summary: Antiinflammatory activity in Swiss Albino mouse assessed as inhibition of carrageenan-induced paw edema at 25 mg/kg, po administered 30 mins before carrageenan challenge relative to vehicle-treated control
- Type: functional
- Set-up: scale not given: the % may be the effect or the level left
measured-property: Activity (%)
Kindly answer with a numeric value in %, unit omitted.

Check out these entries, answers already filled in.
O=C1CC(Nc2ccccc2Nc2ccc(Nc3ccc(Cl)cc3)nn2)=NN1
35.4
O=C1CC(Nc2ccccc2Nc2ccc(N3CCCCC3)nn2)=NN1
59.4
O=C1CC(Nc2ccccc2Nc2ccc(Nc3ccccc3Cl)nn2)=NN1
54.3
CCOc1ccc(Nc2ccccc2NC2=NNC(=O)C2)nn1
10.2

Query: Item under review: O=C1CC(Nc2ccccc2Nc2ccc(Nc3cccc([N+](=O)[O-])c3)nn2)=NN1 . Reported Activity?
Response: 5.4

Query: Item under review: O=C1CC(Nc2ccccc2Nc2ccc(N3CCOCC3)nn2)=NN1 . Reported Activity?
Response: 62.3

* * *

- System: Mus musculus
- procedure-summary: Antiinflammatory activity in Swiss Albino mouse assessed as inhibition of carrageenan-induced TNFalpha production in serum at 25 mg/kg, po administered 30 mins before carrageenan challenge after 30 mins by ELISA (reference value: 15.48 +/- 0.31 ng/ml)
- Format: functional
measured-property: Activity (ng/mL)
Kindly answer with a numeric value in ng/mL, unit omitted.

Check out these entries, answers already filled in.
O=C1CC(Nc2ccccc2Nc2ccc(Cl)nn2)=NN1
13.2
O=C1CC(Nc2ccccc2Nc2ccc(Nc3ccccc3F)nn2)=NN1
11.2
O=C1CC(Nc2ccccc2Nc2ccc(Nc3cccc([N+](=O)[O-])c3)nn2)=NN1
13.5
NC(=O)c1ccccc1Oc1ccc(Nc2ccccc2NC2=NNC(=O)C2)nn1
11.98

Query: Item under review: CCOc1ccc(Nc2ccccc2NC2=NNC(=O)C2)nn1 . Reported Activity?
Response: 12.4

Query: Item under review: O=C([O-])Cc1ccccc1Nc1c(Cl)cccc1Cl.[Na+] [DICLOFENAC SODIUM] . Reported Activity?
Response: 5.01

Query: Item under review: O=C1CC(Nc2ccccc2Nc2ccc(N3CCCCC3)nn2)=NN1 . Reported Activity?
Response: 7.5

Query: Item under review: O=C1CC(Nc2ccccc2Nc2ccc(N3CCOCC3)nn2)=NN1 . Reported Activity?
Response: 7.2

Query: Item under review: O=C1CC(Nc2ccccc2Nc2ccc(Nc3ccc(Cl)cc3)nn2)=NN1 . Reported Activity?
Response: 7.12

Query: Item under review: NS(=O)(=O)c1ccc(Nc2ccc(Nc3ccccc3NC3=NNC(=O)C3)nn2)cc1 . Reported Activity?
Response: 16.7

Query: Item under review: NC(=O)c1ccccc1Nc1ccc(Nc2ccccc2NC2=NNC(=O)C2)nn1 . Reported Activity?
Response: 12.5

Query: Item under review: CN1CCN(c2ccc(Nc3ccccc3NC3=NNC(=O)C3)nn2)CC1 . Reported Activity?
Response: 9.34

Query: Item under review: O=C1CC(Nc2ccccc2Nc2ccc(Nc3ccccc3Cl)nn2)=NN1 . Reported Activity?
Response: 6.4
